- Tested on: Vesicular stomatitis virus
- Assay Comment: Antiviral activity against Vesicular stomatitis virus assessed as viral growth inhibition
- Assay type: functional, organism-based
pEC50: −log10 of the molar value.
Observable: pEC50

- CCN(C(=O)CC(CC(=O)NCCN1CCCCC1)c1ccc(Cl)cc1)C1Cc2ccccc2C1 (stereo not drawn): < 4.00
- CCN(CC)CCNC(=O)CC(CC(=O)N(CC)C1Cc2ccccc2C1)c1ccc(Cl)cc1 (stereo not drawn): 4.41
- CCNCCNC(=O)CC(CC(=O)N(CC)C1Cc2ccccc2C1)c1ccc(Cl)cc1 (stereo not drawn): < 4.00

---

- Assay Comment: Cytotoxicity against African green monkey Vero cells assessed as cell growth inhibition
- Format: toxicity, cell-based
- Recorded Conditions: chlorocebus sabaeus
Measured CC50 by item
Observable: CC50 (µM)

• CCN(C(=O)CC(CC(=O)NCCN1CCCCC1)c1ccc(Cl)cc1)C1Cc2ccccc2C1 (stereo not drawn) = 187
• CCNCCNC(=O)CC(CC(=O)N(CC)C1Cc2ccccc2C1)c1ccc(Cl)cc1 (stereo not drawn) = 144
• CCN(CC)CCNC(=O)CC(CC(=O)N(CC)C1Cc2ccccc2C1)c1ccc(Cl)cc1 (stereo not drawn) = 91.8
